For each of the compounds below, state its GI50.
test system: A549 NSCLC; assay: NCI tumour cell line growth inhibition, 48 h

Read off the recorded GI50 for CC(C)(C)OC(=O)Nc1ccc2c(c1)C(NC(=O)Nc1cccc(C#N)c1)CC(C)(C)O2 (stereo not given) 2900 nM

Note GI50 for the compound shown: COc1cc(CNc2oc(-c3ccccc3)c(-c3ccccc3)c2C#N)cc(CN2CCN(C)CC2)c1O 1970 nM

Could you please provide reported GI50 for CC(=O)[O-].N.N.N.N.[Co+3].[O-][Cl+3]([O-])([O-])[O-].[OH3+] ? Thanks! > 100000 nM

Given COc1cc(NCCCCCN=C(N)NC(N)=NC(C)C)c2ncccc2c1 , respond with its GI50. 11600 nM

Look up GI50 of Cc1cc(O)c(-c2ccc([C@@H](C)CN(C)C)cc2)c2c1[nH]c(=O)c1sccc12 and report it. 647 nM

Source: PubChem BioAssay (NCI)
